# RECORDED CONDITIONS: in DMAc, 358.55 K
OBSERVED PROPERTY: solubility (mole fraction)

[in] Looking for the measured solubility (mole fraction) of `COC(=O)c1ccc2cc(C(=O)OC)ccc2c1` , can you help?
[out] 0.0377

* * *

# RECORDED CONDITIONS: in DMF, 373.02 K
OBSERVED PROPERTY: solubility (mole fraction)
Give a plain numeric answer without units written out.

[in] Looking for the measured solubility (mole fraction) of `COC(=O)c1ccc2cc(C(=O)OC)ccc2c1` , can you help?
[out] 0.0495

* * *

# RECORDED CONDITIONS: in DMSO, 340.85 K
OBSERVED PROPERTY: solubility (mole fraction)
Give a plain numeric answer without units written out.

[in] Looking for the measured solubility (mole fraction) of `COC(=O)c1ccc2cc(C(=O)OC)ccc2c1` , can you help?
[out] 0.00537

* * *

# RECORDED CONDITIONS: in DMF, 342.21 K
OBSERVED PROPERTY: solubility (mole fraction)

[in] Looking for the measured solubility (mole fraction) of `COC(=O)c1ccc2cc(C(=O)OC)ccc2c1` , can you help?
[out] 0.015

* * *

# RECORDED CONDITIONS: in DMAc, 337.27 K
OBSERVED PROPERTY: solubility (mole fraction)

[in] Looking for the measured solubility (mole fraction) of `COC(=O)c1ccc2cc(C(=O)OC)ccc2c1` , can you help?
[out] 0.0167

* * *

# RECORDED CONDITIONS: in NMP, 336.69 K
OBSERVED PROPERTY: solubility (mole fraction)

[in] Looking for the measured solubility (mole fraction) of `COC(=O)c1ccc2cc(C(=O)OC)ccc2c1` , can you help?
[out] 0.00914

* * *

# RECORDED CONDITIONS: in NMP, 423.7 K
OBSERVED PROPERTY: solubility (mole fraction)
Give a plain numeric answer without units written out.

[in] Looking for the measured solubility (mole fraction) of `COC(=O)c1ccc2cc(C(=O)OC)ccc2c1` , can you help?
[out] 0.0379

* * *

# RECORDED CONDITIONS: in DMSO, 365.19 K
OBSERVED PROPERTY: solubility (mole fraction)

[in] Looking for the measured solubility (mole fraction) of `COC(=O)c1ccc2cc(C(=O)OC)ccc2c1` , can you help?
[out] 0.0157

* * *

# RECORDED CONDITIONS: in DMF, 335.43 K
OBSERVED PROPERTY: solubility (mole fraction)
Give a plain numeric answer without units written out.

[in] Looking for the measured solubility (mole fraction) of `COC(=O)c1ccc2cc(C(=O)OC)ccc2c1` , can you help?
[out] 0.0116

* * *

# RECORDED CONDITIONS: in DMAc, 326.25 K
OBSERVED PROPERTY: solubility (mole fraction)
Give a plain numeric answer without units written out.

[in] Looking for the measured solubility (mole fraction) of `COC(=O)c1ccc2cc(C(=O)OC)ccc2c1` , can you help?
[out] 0.0112

* * *

# RECORDED CONDITIONS: in DMSO, 374.65 K
OBSERVED PROPERTY: solubility (mole fraction)
Give a plain numeric answer without units written out.

[in] Looking for the measured solubility (mole fraction) of `COC(=O)c1ccc2cc(C(=O)OC)ccc2c1` , can you help?
[out] 0.0226

* * *

# RECORDED CONDITIONS: in NMP, 300.48 K
OBSERVED PROPERTY: solubility (mole fraction)
Give a plain numeric answer without units written out.

[in] Looking for the measured solubility (mole fraction) of `COC(=O)c1ccc2cc(C(=O)OC)ccc2c1` , can you help?
[out] 0.00606

* * *

# RECORDED CONDITIONS: in DMSO, 298.28 K
OBSERVED PROPERTY: solubility (mole fraction)
Give a plain numeric answer without units written out.

[in] Looking for the measured solubility (mole fraction) of `COC(=O)c1ccc2cc(C(=O)OC)ccc2c1` , can you help?
[out] 0.000669

* * *

# RECORDED CONDITIONS: in acetic acid, 375.64 K
OBSERVED PROPERTY: solubility (mole fraction)

[in] Looking for the measured solubility (mole fraction) of `COC(=O)c1ccc2cc(C(=O)OC)ccc2c1` , can you help?
[out] 0.0248

* * *

# RECORDED CONDITIONS: in DMSO, 316.57 K
OBSERVED PROPERTY: solubility (mole fraction)
Give a plain numeric answer without units written out.

[in] Looking for the measured solubility (mole fraction) of `COC(=O)c1ccc2cc(C(=O)OC)ccc2c1` , can you help?
[out] 0.00179

* * *

# RECORDED CONDITIONS: in DMAc, 370.8 K
OBSERVED PROPERTY: solubility (mole fraction)

[in] Looking for the measured solubility (mole fraction) of `COC(=O)c1ccc2cc(C(=O)OC)ccc2c1` , can you help?
[out] 0.0573

* * *

# RECORDED CONDITIONS: in NMP, 375.38 K
OBSERVED PROPERTY: solubility (mole fraction)
Give a plain numeric answer without units written out.

[in] Looking for the measured solubility (mole fraction) of `COC(=O)c1ccc2cc(C(=O)OC)ccc2c1` , can you help?
[out] 0.016

* * *

# RECORDED CONDITIONS: in DMSO, 324.97 K
OBSERVED PROPERTY: solubility (mole fraction)
Give a plain numeric answer without units written out.

[in] Looking for the measured solubility (mole fraction) of `COC(=O)c1ccc2cc(C(=O)OC)ccc2c1` , can you help?
[out] 0.00272

* * *

# RECORDED CONDITIONS: in acetic acid, 400.54 K
OBSERVED PROPERTY: solubility (mole fraction)
Give a plain numeric answer without units written out.

[in] Looking for the measured solubility (mole fraction) of `COC(=O)c1ccc2cc(C(=O)OC)ccc2c1` , can you help?
[out] 0.0607

* * *

# RECORDED CONDITIONS: in acetic acid, 306.86 K
OBSERVED PROPERTY: solubility (mole fraction)
Give a plain numeric answer without units written out.

[in] Looking for the measured solubility (mole fraction) of `COC(=O)c1ccc2cc(C(=O)OC)ccc2c1` , can you help?
[out] 0.00116

* * *

# RECORDED CONDITIONS: in acetic acid, 381.78 K
OBSERVED PROPERTY: solubility (mole fraction)
Give a plain numeric answer without units written out.

[in] Looking for the measured solubility (mole fraction) of `COC(=O)c1ccc2cc(C(=O)OC)ccc2c1` , can you help?
[out] 0.0304

* * *

# RECORDED CONDITIONS: in DMF, 382.14 K
OBSERVED PROPERTY: solubility (mole fraction)
Give a plain numeric answer without units written out.

[in] Looking for the measured solubility (mole fraction) of `COC(=O)c1ccc2cc(C(=O)OC)ccc2c1` , can you help?
[out] 0.0661

* * *

# RECORDED CONDITIONS: in DMAc, 364.4 K
OBSERVED PROPERTY: solubility (mole fraction)
Give a plain numeric answer without units written out.

[in] Looking for the measured solubility (mole fraction) of `COC(=O)c1ccc2cc(C(=O)OC)ccc2c1` , can you help?
[out] 0.0452

* * *

# RECORDED CONDITIONS: in acetic acid, 316.5 K
OBSERVED PROPERTY: solubility (mole fraction)
Give a plain numeric answer without units written out.

[in] Looking for the measured solubility (mole fraction) of `COC(=O)c1ccc2cc(C(=O)OC)ccc2c1` , can you help?
[out] 0.0019

* * *

# RECORDED CONDITIONS: in NMP, 404.46 K
OBSERVED PROPERTY: solubility (mole fraction)
Give a plain numeric answer without units written out.

[in] Looking for the measured solubility (mole fraction) of `COC(=O)c1ccc2cc(C(=O)OC)ccc2c1` , can you help?
[out] 0.0251

* * *

# RECORDED CONDITIONS: in DMAc, 392.17 K
OBSERVED PROPERTY: solubility (mole fraction)
Give a plain numeric answer without units written out.

[in] Looking for the measured solubility (mole fraction) of `COC(=O)c1ccc2cc(C(=O)OC)ccc2c1` , can you help?
[out] 0.112

* * *

# RECORDED CONDITIONS: in DMF, 309.36 K
OBSERVED PROPERTY: solubility (mole fraction)
Give a plain numeric answer without units written out.

[in] Looking for the measured solubility (mole fraction) of `COC(=O)c1ccc2cc(C(=O)OC)ccc2c1` , can you help?
[out] 0.00341

* * *

# RECORDED CONDITIONS: in acetic acid, 292.49 K
OBSERVED PROPERTY: solubility (mole fraction)
Give a plain numeric answer without units written out.

[in] Looking for the measured solubility (mole fraction) of `COC(=O)c1ccc2cc(C(=O)OC)ccc2c1` , can you help?
[out] 0.00051

* * *

# RECORDED CONDITIONS: in DMAc, 299.11 K
OBSERVED PROPERTY: solubility (mole fraction)
Give a plain numeric answer without units written out.

[in] Looking for the measured solubility (mole fraction) of `COC(=O)c1ccc2cc(C(=O)OC)ccc2c1` , can you help?
[out] 0.00345
